# tested.on: HucR-H51F (Deinococcus radiodurans, UniProt Q9RV71, H51F)
# assay.text: intrinsic tryptophan fluorescence quenching
# Type: binding
measure.name: Kd

# compound.string, tested.on, experimental.value
records = [
    ("O=c1[nH]c(=O)c2[nH]cnc2[nH]1", "HucR-H51F (Deinococcus radiodurans, UniProt Q9RV71, H51F)", "~17 µM"),
]

====

# tested.on: HucR-E48Q (Deinococcus radiodurans, UniProt Q9RV71, E48Q)
# assay.text: intrinsic tryptophan fluorescence quenching
# Format: binding
pKd: −log10 of the molar value.

# compound, pKd
data = [
    ("O=c1[nH]c(=O)c2[nH]c(=O)[nH]c2[nH]1 [urate]", 5.66),
]
